procedure summary: protein stability index of a GFP-peptide fusion (yeast GPS) (PSI 1-4); higher = more stable; sorted into four equal gates, so the index is relative within each strain
stated conditions: pdr5∆
The threshold is inclusive: protein stability index of exactly 3 counts as condition met; values below receive condition not met.

Asked: # bool: protein stability index of TPVQPDLSVTPQKSSSK [YAR002W/NUP60] >= 3
Given back: condition met

Asked: Same thing, different sequence: TMETKTLPEKKQFDSIF [SIR4]
Given back: condition not met

Asked: Next: SSRTKFWSFLDSLIFKD [YJL039C/NUP192]
Given back: condition not met

Asked: Same question, FPTRLGQGYRKVGIWPY [YJL039C/NUP192] this time
Given back: condition met

Asked: Next: HSRKMNLTRGINLRKVA [RPT6]
Given back: condition not met

Asked: Same lookup for DLRLIKVPQQAAGKRIS [SMC1] , please.
Given back: condition not met

Asked: Next sequence up: SQSACREMALCRELHNK [SSN3]
Given back: condition not met

Asked: Moving on to the next sequence: QESFINTMSAWVNMLLI [FAS2]
Given back: condition not met

Asked: Again, but for KILMYQYNIPPEREVLV [RRP6]
Given back: condition not met

Asked: Try this sequence next: KKNLGRLTRLWIKNEQE [PRP8]
Given back: condition not met

Asked: Again, but for PLINLALIDTEFANFEL [YML103C/NUP188]
Given back: condition not met
